Entry source: the nanobody polyreactivity screen of Harvey et al. (2022)

- assayExplanation: yeast display, Sf9 membrane polyspecificity reagent, FACS + sequencing; frameworks hold sequencing errors
readout: polyreactivity (PSR sort gate)

Observe how each entry below is paired with its result.
# polymerSequence, observed
measured = [
    ("QVQLVESGGGLVQAGGSLRLSCAASGIFRRYAMGWYRQAPGKERELVATITSGGSTNYADSVKGRFTISRDNAKNTVYLQMNSLKPEDTAVYYCNALYGARRYTRWYTGMDYWGQGTQVTVSS", "high polyreactivity"),
    ("QVQLVESGGGLVQAGGSLRLSCAASGITFARYAMGWYRQAPGKERELVAAISQSGGSTYYADSVKGRFTISRDNAKNTVYLQMNSLKPEDTAVYYCNAYYVNYVSNYEYWGQGTQVTVSS", "high polyreactivity"),
    ("QVQLVESGGGLVQAGGSLRLSCAASGFTFSVYAMGWYRQAPGKERELVADIDWSGGSTYYADSVKGRFTISRDNAKNTVYLQMNSLKPEDTAVYYCAADYYYPDSYVQGTSGEYWGQGTQVTVSS", "low polyreactivity"),
    ("QVQLVESGGGLVQAGGSLRLSCAASGSTFGSNAMGWYRQAPGKERELVAAIRWSGGSTYYADSVKGRFTISRDNAKNTVYLQMNSLKPEDTAVYYFAGYYFQYNRRFNYWGQGTQVTVSS", "high polyreactivity"),
    ("QVQLVESGGGLVQAGGSLRLSSAASGFILRWYAMGWYRQAPGKERELVAAISWSGGSTYYADSVKGRFTISRDNAKNTVYLQMNSLKPEDTAVYYCNAVNYRNKYDYWGQGTQVTVSS", "high polyreactivity"),
]

Request: Consider the sequence shown here: `QVQLVESGGGLVQAGGSLRLSCAASGRTFDINTMGWYRQAPGKERELVARISGRGGSTYYADSVKGRFTISRDNAKNTVYLLMNSLKPEYTAVYYCNALGRSVLPQPIGDYWGQGTQVTVSS` What is its recorded polyreactivity (PSR sort gate)?
Result: high polyreactivity

Request: Consider the sequence shown here: `QVQLVESGGGLVQAGGSLRLSCAASGFTFGHYAMGWYRPAPGKERELVAAISSGDRTYYADSVKGRFTISRDNAKNTVYLQMNSLKPEDTAVYYCNAVYYSWAQSARFDYWGQGTQVTVSS` What is its recorded polyreactivity (PSR sort gate)?
Result: low polyreactivity
